Cited source: the supplement of paper PMC7877785

Give measured self-splicing fitness (ln) for each item. Keep answers brief.
- assayDetails: self-splicing fitness, log relative to wild type (ln ratio); higher = more splicing; Tetrahymena group I intron in knt gene, E. coli kanamycin selection, DiMSum; sequences stand for … in CUCUCU…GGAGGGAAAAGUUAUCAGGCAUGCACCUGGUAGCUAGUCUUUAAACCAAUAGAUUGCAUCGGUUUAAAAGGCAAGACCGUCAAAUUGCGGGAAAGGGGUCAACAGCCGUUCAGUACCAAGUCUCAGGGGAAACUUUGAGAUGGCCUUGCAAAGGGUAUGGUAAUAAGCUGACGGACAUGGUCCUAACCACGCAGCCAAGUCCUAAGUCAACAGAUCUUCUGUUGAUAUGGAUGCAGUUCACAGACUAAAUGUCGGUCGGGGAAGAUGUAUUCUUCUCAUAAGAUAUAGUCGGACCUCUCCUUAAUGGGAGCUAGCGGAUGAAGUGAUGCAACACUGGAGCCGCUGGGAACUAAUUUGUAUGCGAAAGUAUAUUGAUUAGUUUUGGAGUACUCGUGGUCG;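 further: selection with 25 µg/mL kanamycin versus none on LB agar overnight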
- experimentalSetup: 30 °C
Numbers only.

// known answers, use as guide
recordSequence: UAGUAGCAAUAUUACGUUUA
self-splicing fitness (ln): -1.48
--
recordSequence: GUAUAGCAAUAUUACGUUGU
self-splicing fitness (ln): -2.78
--
recordSequence: AGUCAGCAAUAUUACGAUCC
self-splicing fitness (ln): 0.284

Fill in self-splicing fitness (ln) for each of the 5 sequences listed.
1. GGCGAGCAAUAUUACGAUGU
2. AUCCAGCAAUAUUACGUUAA
3. GAAAAGCAAUAUUACGACCC
4. CACUAGCAAUAUUACGCGCG
5. GGGUAGCAAUAUUACGGCCU

Return:
[-3.69, -1.79, 0.23, -1.1, -3.57]

Fill in self-splicing fitness (ln) for each of the 4 sequences listed.
1. GGCCAGCAAUAUUACGACAA
2. UAAUAGCAAUAUUACGGUCC
3. AGGGAGCAAUAUUACGACCG
4. ACAAAGCAAUAUUACGCGAG

Return:
-2.78
-2.53
-1.92
-1.33

Fill in self-splicing fitness (ln) for each of the 4 sequences listed.
1. UCUUAGCAAUAUUACGGCCG
2. CGCCAGCAAUAUUACGCUAG
3. AGUAAGCAAUAUUACGGUGA
4. GUCUAGCAAUAUUACGAACU

Return:
-2.11
-2.94
-2.73
-1.9

====

- assayDetails: self-splicing fitness, log relative to wild type (ln ratio); higher = more splicing; Tetrahymena group I intron in knt gene, E. coli kanamycin selection, DiMSum; sequences stand for … in CUCUCU…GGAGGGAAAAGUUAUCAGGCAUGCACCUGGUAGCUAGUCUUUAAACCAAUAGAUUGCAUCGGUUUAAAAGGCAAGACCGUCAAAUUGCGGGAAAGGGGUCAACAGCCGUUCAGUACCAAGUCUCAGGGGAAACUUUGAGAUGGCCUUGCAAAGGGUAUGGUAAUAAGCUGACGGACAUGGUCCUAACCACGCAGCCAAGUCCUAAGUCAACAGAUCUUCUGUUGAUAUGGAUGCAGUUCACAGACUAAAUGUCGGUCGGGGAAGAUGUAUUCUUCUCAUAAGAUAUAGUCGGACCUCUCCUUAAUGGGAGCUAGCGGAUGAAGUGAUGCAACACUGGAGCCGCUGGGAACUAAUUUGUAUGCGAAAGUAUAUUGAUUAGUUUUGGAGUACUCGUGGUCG
- experimentalSetup: 37 °C
Quick rule for you: self-splicing fitness (ln) at -1 or higher means 1 (yes), lower means 0 (no).

Before answering, review these 3 worked examples.
recordSequence: CCUCAGCAAUAUUACGACGC
answerLabel: 0 (no)
--
recordSequence: GUGCAGCAAUAUUACGGUAG
answerLabel: 1 (yes)
--
recordSequence: CGGAAGCAAUAUUACGAAGU
answerLabel: 0 (no)

Enquiry: Confirm if self-splicing fitness (ln) reported for the sequence CUCAAGCAAUAUUACGAGUU is -1 or above.
Return: 0 (no)

Enquiry: Confirm if self-splicing fitness (ln) reported for the sequence GGCUAGCAAUAUUACGAGAG is -1 or above.
Return: 0 (no)

Enquiry: Confirm if self-splicing fitness (ln) reported for the sequence UACCAGCAAUAUUACGUUGG is -1 or above.
Return: 0 (no)

Enquiry: Confirm if self-splicing fitness (ln) reported for the sequence AGAUAGCAAUAUUACGACCU is -1 or above.
Return: 1 (yes)

====

- assayDetails: self-splicing fitness, log relative to wild type (ln ratio); higher = more splicing; Tetrahymena group I intron in knt gene, E. coli kanamycin selection, DiMSum; sequences stand for … in CUCUCU…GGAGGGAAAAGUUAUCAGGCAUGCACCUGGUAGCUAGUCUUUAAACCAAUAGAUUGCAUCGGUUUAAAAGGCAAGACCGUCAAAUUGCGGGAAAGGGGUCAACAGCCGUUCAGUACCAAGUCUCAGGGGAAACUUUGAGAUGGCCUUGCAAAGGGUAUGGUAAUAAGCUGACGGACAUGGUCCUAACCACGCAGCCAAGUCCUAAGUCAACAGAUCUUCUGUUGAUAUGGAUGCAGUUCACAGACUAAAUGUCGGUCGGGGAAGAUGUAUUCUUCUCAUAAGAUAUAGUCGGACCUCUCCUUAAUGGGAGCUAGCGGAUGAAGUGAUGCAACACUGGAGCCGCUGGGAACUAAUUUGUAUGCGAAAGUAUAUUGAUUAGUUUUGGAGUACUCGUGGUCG
- experimentalSetup: 30 °C
Give measured self-splicing fitness (ln) for each item. Keep answers brief.

// known answers, use as guide
recordSequence: UAUAAGCAAUAUUACGCUUU
self-splicing fitness (ln): -4.08

recordSequence: UCGCAGCAAUAUUACGAGCG
self-splicing fitness (ln): -1.97

Fill in self-splicing fitness (ln) for each of the 6 sequences listed.
1. UUCUAGCAAUAUUACGGAUU
2. UGAGAGCAAUAUUACGGCUU
3. GGUAAGCAAUAUUACGCUAA
4. UAUGAGCAAUAUUACGAACC
5. CGGUAGCAAUAUUACGAUUG
6. CUUCAGCAAUAUUACGAGUA

Return:
[-2.7, -4.13, -2.29, -2.34, -0.538, -1.21]

Fill in self-splicing fitness (ln) for each of the 7 sequences listed.
1. CAUCAGCAAUAUUACGCCGU
2. UAGAAGCAAUAUUACGUAUC
3. GUACAGCAAUAUUACGUAGA
4. CAUAAGCAAUAUUACGUCGC
5. CUCAAGCAAUAUUACGUCUA
6. AACUAGCAAUAUUACGGAGU
7. GCGUAGCAAUAUUACGUUCG

Return:
-2.51
-3.43
-2.65
-4.06
-3.15
-2.95
-1.48

Enquiry: Reported self-splicing fitness (ln), sequence GGAAAGCAAUAUUACGACUG : ____
Return: -1.93

====

- assayDetails: self-splicing fitness, log relative to wild type (ln ratio); higher = more splicing; Tetrahymena group I intron in knt gene, E. coli kanamycin selection, DiMSum; sequences stand for … in CUCUCU…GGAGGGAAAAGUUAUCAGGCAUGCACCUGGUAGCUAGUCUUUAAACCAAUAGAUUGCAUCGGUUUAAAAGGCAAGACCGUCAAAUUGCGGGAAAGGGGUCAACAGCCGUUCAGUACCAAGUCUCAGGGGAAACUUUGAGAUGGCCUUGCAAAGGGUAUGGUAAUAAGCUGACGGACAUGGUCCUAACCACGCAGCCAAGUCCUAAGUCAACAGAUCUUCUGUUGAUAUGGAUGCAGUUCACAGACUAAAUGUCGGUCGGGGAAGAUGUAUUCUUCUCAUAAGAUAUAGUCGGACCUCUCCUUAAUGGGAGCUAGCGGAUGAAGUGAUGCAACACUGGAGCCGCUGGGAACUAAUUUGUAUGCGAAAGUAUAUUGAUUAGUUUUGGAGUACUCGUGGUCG
- experimentalSetup: 37 °C
Quick rule for you: self-splicing fitness (ln) at -1 or higher means 1.0, lower means 0.0.

Before answering, review these 5 worked examples.
recordSequence: UGCUAGCAAUAUUACGCGUA
answerLabel: 1.0
--
recordSequence: UUUUAGCAAUAUUACGUGCG
answerLabel: 1.0
--
recordSequence: GUGUAGCAAUAUUACGAAAG
answerLabel: 0.0
--
recordSequence: CCGAAGCAAUAUUACGGACU
answerLabel: 0.0
--
recordSequence: CCCGAGCAAUAUUACGGUUC
answerLabel: 0.0

Enquiry: Confirm if self-splicing fitness (ln) reported for the sequence CACAAGCAAUAUUACGAGAG is -1 or above.
Return: 0.0

Enquiry: Confirm if self-splicing fitness (ln) reported for the sequence ACUCAGCAAUAUUACGUUCU is -1 or above.
Return: 1.0

Enquiry: Confirm if self-splicing fitness (ln) reported for the sequence GCGGAGCAAUAUUACGGGUG is -1 or above.
Return: 0.0

Enquiry: Confirm if self-splicing fitness (ln) reported for the sequence GCCGAGCAAUAUUACGCUUG is -1 or above.
Return: 0.0

Enquiry: Confirm if self-splicing fitness (ln) reported for the sequence AGCAAGCAAUAUUACGGUCG is -1 or above.
Return: 1.0
